System: MOLT-4 leukemia
protocol: NCI-60 one-dose screen, 48 h (100 = growth as untreated, 0 = no growth, -100 = all killed)
condition-label: 10 µM unless noted
Compounds without any hit were thinned out: in the full panel of roughly 83,000, 20% have a hit.
criterion met means recorded growth is 30% or above; criterion not met means it is below 30%.

For orientation, consider the following solved cases.
CCCNc1nc2ccccc2c2c(=O)c3cccc(Cl)c3sc12	criterion met
COc1cccc(/C=C/C(=O)c2cc3c(N)c(C(=O)Nc4cccc(Cl)c4C)sc3nc2C)c1	criterion not met
COc1cccc(OC)c1Oc1c(-c2nc3ccccc3s2)c(C)nn1-c1ccccc1	criterion met

Kindly determine if growth recorded for C=CC(=O)NCCOc1cccc(Nc2cc(NCCCNC(=O)C3CCC3)c(Br)cn2)c1 is above or exactly 30%. criterion not met

Now give it for Cn1cc(/C=C2/C(=O)Nc3ccccc32)c2ccccc21 too. criterion met

Same again, this time with CN(C)Cc1ccc(C(=O)Nc2ccc3ncnc(Nc4ccc(Oc5cccc(F)c5)c(Cl)c4)c3c2)cc1 criterion not met

Again, but for COc1ccc(-c2nnc(SCC(=O)Nc3ccc(/C(C)=N\O)cc3)n2-c2ccccc2)cc1OC criterion met

Cool, now CCCCCCNc1nc(NCCCCCC)c2[nH]c(NCCCCCC)nc2n1 criterion not met

// next record CCCn1c(=S)sc2c1nc(C)n1c(Nc3ccccc3)nnc21 criterion met

Next compound up: CN1CCN(Cc2ccc(NC(=O)c3cncc(C#Cc4cncc5[nH]ncc45)c3)cc2C(F)(F)F)CC1 criterion not met
